system: Pseudomonas aeruginosa ATCC 27853; format: cell-based; details: ATCC 27853
Bridge positions count the residues as written; N and C are the ends. Square brackets hold non-standard residues; d marks the D form. Peptide text beside a SMILES is read from it. * marks the point of attachment. Nonanoyl = CCCCCCCCC(=O)*; X1 = CC[C@H](C)CCCCC(=O)*; dDab = NCC[C@@H](N)C(=O)O; Heptanoyl = CCCCCCC(=O)*; Orn = NCCC[C@H](N)C(=O)O; dDap = NC[C@@H](N)C(=O)O; Dab = NCC[C@H](N)C(=O)O; Dap = NC[C@H](N)C(=O)O
attribute_measured: MIC

Below are worked cases with known answers.
INSERT INTO assay_data (molecule, meas_value) VALUES
  ('CCCCCCC(=O)N[C@@H](CCN)C(=O)N[C@H](C(=O)N[C@H](CO)C(=O)N[C@H]1CCNC(=O)[C@H]([C@@H](C)O)NC(=O)[C@H](CCN)NC(=O)[C@H](CCN)NC(=O)[C@H]([C@@H](C)O)NC(=O)[C@@H](Cc2ccccc2)NC(=O)[C@H](CN)NC1=O)[C@@H](C)O [Compound 64] (Heptanoyl-[Dab]T[dS][Dab][Dap][dF]T[Dab][Dab]T; lactam 4-C)', '64 µg/mL'),
  ('CC[C@H](C)CCCCC(=O)N[C@@H](CCN)C(=O)N[C@H](C(=O)N[C@H](CO)C(=O)N[C@H]1CCNC(=O)[C@H]([C@@H](C)O)NC(=O)[C@H](CCN)NC(=O)[C@H](CCN)NC(=O)[C@H]([C@@H](C)O)NC(=O)[C@@H](Cc2ccccc2)NC(=O)[C@H](CCCN)NC1=O)[C@@H](C)O [Compound 66] (X1-[Dab]T[dS][Dab][Orn][dF]T[Dab][Dab]T; lactam 4-C)', '64 µg/mL'),
  ('CCCCCCCCC(=O)N[C@@H](CN)C(=O)N[C@H](C(=O)N[C@H](CCN)C(=O)N[C@H]1CCNC(=O)[C@H]([C@@H](C)O)NC(=O)[C@H](CCN)NC(=O)[C@H](CCN)NC(=O)[C@H](CC(C)C)NC(=O)[C@@H](Cc2ccccc2)NC(=O)[C@H](CCN)NC1=O)[C@@H](C)O [Compound 95] (Nonanoyl-[Dap]T[dDab][Dab][Dab][dF]L[Dab][Dab]T; lactam 4-C)', '1 µg/mL');

Respond only with MIC recorded for CCCCCCCCC(=O)N[C@@H](CCN)C(=O)N[C@H](C(=O)N[C@H](CO)C(=O)N[C@H]1CCNC(=O)[C@H]([C@@H](C)O)NC(=O)[C@H](CCN)NC(=O)[C@H](CCN)NC(=O)[C@H]([C@@H](C)O)NC(=O)[C@@H](Cc2ccccc2)NC(=O)[C@H](CN)NC1=O)[C@@H](C)O [Compound 65] (Nonanoyl-[Dab]T[dS][Dab][Dap][dF]T[Dab][Dab]T; lactam 4-C)
64 µg/mL

Respond only with MIC recorded for CCCCCCC(=O)N[C@@H](CN)C(=O)N[C@H](C(=O)N[C@H](CCN)C(=O)N[C@H]1CCNC(=O)[C@H]([C@@H](C)O)NC(=O)[C@H](CCN)NC(=O)[C@H](CCN)NC(=O)[C@H](CC(C)C)NC(=O)[C@@H](CC(C)C)NC(=O)[C@H](CCN)NC1=O)[C@@H](C)O [Compound 99] (Heptanoyl-[Dap]T[dDab][Dab][Dab][dL]L[Dab][Dab]T; lactam 4-C)
1 µg/mL

Respond only with MIC recorded for CCCCCCCCC(=O)N[C@@H](CCN)C(=O)N[C@H](C(=O)N[C@H](CN)C(=O)N[C@H]1CCNC(=O)[C@H]([C@@H](C)O)NC(=O)[C@H](CCN)NC(=O)[C@H](CCN)NC(=O)[C@H]([C@@H](C)O)NC(=O)[C@@H](Cc2ccccc2)NC(=O)[C@H](CCN)NC1=O)[C@@H](C)O [Compound 5] (Nonanoyl-[Dab]T[dDap][Dab][Dab][dF]T[Dab][Dab]T; lactam 4-C)
0.06 µg/mL

* * *

Each entry below lists one item and its recorded MIC value.
system: Acinetobacter baumannii NCTC 13304 (OXA-27); assay type: cell-based; details: NCTC 13304
Bridge positions count the residues as written; N and C are the ends. Square brackets hold non-standard residues; d marks the D form. Peptide text beside a SMILES is read from it. * marks the point of attachment. Heptanoyl(6-Me) = CC(C)CCCCC(=O)*; dOrn = NCCC[C@@H](N)C(=O)O; Nonanoyl = CCCCCCCCC(=O)*; Octanoyl = CCCCCCCC(=O)*; Dab = NCC[C@H](N)C(=O)O; Dap = NC[C@H](N)C(=O)O
Only the number, expressed in µg/mL, is required.

INSERT INTO results (compound, attribute_measured, unit_info, meas_value) VALUES
  ('CC(C)CCCCC(=O)N[C@@H](CN)C(=O)N[C@H](C(=O)N[C@H](CO)C(=O)N[C@H]1CCNC(=O)[C@H]([C@@H](C)O)NC(=O)[C@H](CCN)NC(=O)[C@H](CCN)NC(=O)[C@H]([C@@H](C)O)NC(=O)[C@@H](Cc2ccccc2)NC(=O)[C@H](CCN)NC1=O)[C@@H](C)O [Compound 52] ({Heptanoyl(6-Me)}-[Dap]T[dS][Dab][Dab][dF]T[Dab][Dab]T; lactam 4-C)', 'MIC', 'µg/mL', 0.25),
  ('CCCCCCCC(=O)N[C@@H](CCN)C(=O)N[C@H](C(=O)N[C@H](CCCN)C(=O)N[C@H]1CCNC(=O)[C@H]([C@@H](C)O)NC(=O)[C@H](CCN)NC(=O)[C@H](CCN)NC(=O)[C@H]([C@@H](C)O)NC(=O)[C@@H](Cc2ccccc2)NC(=O)[C@H](CCN)NC1=O)[C@@H](C)O [Compound 23] (Octanoyl-[Dab]T[dOrn][Dab][Dab][dF]T[Dab][Dab]T; lactam 4-C)', 'MIC', 'µg/mL', 0.06);

Could you now look at the following compound, please?
Respond only with MIC recorded for CCCCCCCCC(=O)N[C@@H](CCN)C(=O)N[C@H](C(=O)N[C@H](CO)C(=O)N[C@H]1CCNC(=O)[C@H]([C@@H](C)O)NC(=O)[C@H](CCN)NC(=O)[C@H](CCN)NC(=O)[C@H]([C@@H](C)O)NC(=O)[C@@H](Cc2ccccc2)NC(=O)[C@H](CN)NC1=O)[C@@H](C)O [Compound 65] (Nonanoyl-[Dab]T[dS][Dab][Dap][dF]T[Dab][Dab]T; lactam 4-C)
0.25

* * *

test system: Pseudomonas aeruginosa PAE19-3; assay type: cell-based; conditions: PAE19-3
Bridge positions count the residues as written; N and C are the ends. Square brackets hold non-standard residues; d marks the D form. Peptide text beside a SMILES is read from it. * marks the point of attachment. X1 = CC[C@H](C)CCCCC(=O)*; dDab = NCC[C@@H](N)C(=O)O; Heptanoyl = CCCCCCC(=O)*; Orn = NCCC[C@H](N)C(=O)O; Dab = NCC[C@H](N)C(=O)O; Dap = NC[C@H](N)C(=O)O
attribute_measured: MIC (mg/L)
Only the number, expressed in mg/L, is required.

Respond only with MIC recorded for CCCCCCC(=O)N[C@@H](CCN)C(=O)N[C@H](C(=O)N[C@H](CO)C(=O)N[C@H]1CCNC(=O)[C@H]([C@@H](C)O)NC(=O)[C@H](CCCN)NC(=O)[C@H](CCN)NC(=O)[C@H]([C@@H](C)O)NC(=O)[C@@H](Cc2ccccc2)NC(=O)[C@H](CCN)NC1=O)[C@@H](C)O [Compound 89] (Heptanoyl-[Dab]T[dS][Dab][Dab][dF]T[Dab][Orn]T; lactam 4-C)
64

Respond only with MIC recorded for CC[C@H](C)CCCCC(=O)N[C@@H](CN)C(=O)N[C@H](C(=O)N[C@H](CCN)C(=O)N[C@H]1CCNC(=O)[C@H]([C@@H](C)O)NC(=O)[C@H](CCN)NC(=O)[C@H](CCN)NC(=O)[C@H](CC(C)C)NC(=O)[C@@H](CC(C)C)NC(=O)[C@H](CCN)NC1=O)[C@@H](C)O [Compound 96] (X1-[Dap]T[dDab][Dab][Dab][dL]L[Dab][Dab]T; lactam 4-C)
0.5

* * *

assay: Nephrotoxicity assay: in vitro cytotoxicity of HK-2 cells by CCK-8 assay; assay type: cell-based; details: human, HK-2 cells (human renal), 72 h incubation with drug-containing medium
Bridge positions count the residues as written; N and C are the ends. Square brackets hold non-standard residues; d marks the D form. Peptide text beside a SMILES is read from it. * marks the point of attachment. Nonanoyl = CCCCCCCCC(=O)*; Heptanoyl = CCCCCCC(=O)*; dDap = NC[C@@H](N)C(=O)O; Dab = NCC[C@H](N)C(=O)O; Dap = NC[C@H](N)C(=O)O
Each entry below lists one item and its recorded IC50 at 72 h value.
Only the number, expressed in µg/mL, is required.

INSERT INTO assay_data (compound, unit_info, meas_value) VALUES
  ('CCCCCCC(=O)N[C@@H](CCN)C(=O)N[C@H](C(=O)N[C@H](CN)C(=O)N[C@H]1CCNC(=O)[C@H]([C@@H](C)O)NC(=O)[C@H](CCN)NC(=O)[C@H](CCN)NC(=O)[C@H](CC(C)C)NC(=O)[C@@H](Cc2ccccc2)NC(=O)[C@H](CCN)NC1=O)[C@@H](C)O [Compound 34] (Heptanoyl-[Dab]T[dDap][Dab][Dab][dF]L[Dab][Dab]T; lactam 4-C)', 'µg/mL', 298);

Could you now look at the following compound, please?
Respond only with IC50 at 72 h recorded for CCCCCCCCC(=O)N[C@@H](CCN)C(=O)N[C@H](C(=O)N[C@H](CO)C(=O)N[C@H]1CCNC(=O)[C@H]([C@@H](C)O)NC(=O)[C@H](CN)NC(=O)[C@H](CCN)NC(=O)[C@H]([C@@H](C)O)NC(=O)[C@@H](Cc2ccccc2)NC(=O)[C@H](CCN)NC1=O)[C@@H](C)O [Compound 85] (Nonanoyl-[Dab]T[dS][Dab][Dab][dF]T[Dab][Dap]T; lactam 4-C)
357

Measured values drawn from patent EP4725957A1 for this set.
